FYI, the data here is from patent US8541588B2.

Target under test: Nav1.7 (or SCN9A) channel; HEK cells stably transfected with hSCN9A (Homo sapiens, UniProt Q15858)
Construct: expressed in transfected cells
Sequence (Q15858 whole entry): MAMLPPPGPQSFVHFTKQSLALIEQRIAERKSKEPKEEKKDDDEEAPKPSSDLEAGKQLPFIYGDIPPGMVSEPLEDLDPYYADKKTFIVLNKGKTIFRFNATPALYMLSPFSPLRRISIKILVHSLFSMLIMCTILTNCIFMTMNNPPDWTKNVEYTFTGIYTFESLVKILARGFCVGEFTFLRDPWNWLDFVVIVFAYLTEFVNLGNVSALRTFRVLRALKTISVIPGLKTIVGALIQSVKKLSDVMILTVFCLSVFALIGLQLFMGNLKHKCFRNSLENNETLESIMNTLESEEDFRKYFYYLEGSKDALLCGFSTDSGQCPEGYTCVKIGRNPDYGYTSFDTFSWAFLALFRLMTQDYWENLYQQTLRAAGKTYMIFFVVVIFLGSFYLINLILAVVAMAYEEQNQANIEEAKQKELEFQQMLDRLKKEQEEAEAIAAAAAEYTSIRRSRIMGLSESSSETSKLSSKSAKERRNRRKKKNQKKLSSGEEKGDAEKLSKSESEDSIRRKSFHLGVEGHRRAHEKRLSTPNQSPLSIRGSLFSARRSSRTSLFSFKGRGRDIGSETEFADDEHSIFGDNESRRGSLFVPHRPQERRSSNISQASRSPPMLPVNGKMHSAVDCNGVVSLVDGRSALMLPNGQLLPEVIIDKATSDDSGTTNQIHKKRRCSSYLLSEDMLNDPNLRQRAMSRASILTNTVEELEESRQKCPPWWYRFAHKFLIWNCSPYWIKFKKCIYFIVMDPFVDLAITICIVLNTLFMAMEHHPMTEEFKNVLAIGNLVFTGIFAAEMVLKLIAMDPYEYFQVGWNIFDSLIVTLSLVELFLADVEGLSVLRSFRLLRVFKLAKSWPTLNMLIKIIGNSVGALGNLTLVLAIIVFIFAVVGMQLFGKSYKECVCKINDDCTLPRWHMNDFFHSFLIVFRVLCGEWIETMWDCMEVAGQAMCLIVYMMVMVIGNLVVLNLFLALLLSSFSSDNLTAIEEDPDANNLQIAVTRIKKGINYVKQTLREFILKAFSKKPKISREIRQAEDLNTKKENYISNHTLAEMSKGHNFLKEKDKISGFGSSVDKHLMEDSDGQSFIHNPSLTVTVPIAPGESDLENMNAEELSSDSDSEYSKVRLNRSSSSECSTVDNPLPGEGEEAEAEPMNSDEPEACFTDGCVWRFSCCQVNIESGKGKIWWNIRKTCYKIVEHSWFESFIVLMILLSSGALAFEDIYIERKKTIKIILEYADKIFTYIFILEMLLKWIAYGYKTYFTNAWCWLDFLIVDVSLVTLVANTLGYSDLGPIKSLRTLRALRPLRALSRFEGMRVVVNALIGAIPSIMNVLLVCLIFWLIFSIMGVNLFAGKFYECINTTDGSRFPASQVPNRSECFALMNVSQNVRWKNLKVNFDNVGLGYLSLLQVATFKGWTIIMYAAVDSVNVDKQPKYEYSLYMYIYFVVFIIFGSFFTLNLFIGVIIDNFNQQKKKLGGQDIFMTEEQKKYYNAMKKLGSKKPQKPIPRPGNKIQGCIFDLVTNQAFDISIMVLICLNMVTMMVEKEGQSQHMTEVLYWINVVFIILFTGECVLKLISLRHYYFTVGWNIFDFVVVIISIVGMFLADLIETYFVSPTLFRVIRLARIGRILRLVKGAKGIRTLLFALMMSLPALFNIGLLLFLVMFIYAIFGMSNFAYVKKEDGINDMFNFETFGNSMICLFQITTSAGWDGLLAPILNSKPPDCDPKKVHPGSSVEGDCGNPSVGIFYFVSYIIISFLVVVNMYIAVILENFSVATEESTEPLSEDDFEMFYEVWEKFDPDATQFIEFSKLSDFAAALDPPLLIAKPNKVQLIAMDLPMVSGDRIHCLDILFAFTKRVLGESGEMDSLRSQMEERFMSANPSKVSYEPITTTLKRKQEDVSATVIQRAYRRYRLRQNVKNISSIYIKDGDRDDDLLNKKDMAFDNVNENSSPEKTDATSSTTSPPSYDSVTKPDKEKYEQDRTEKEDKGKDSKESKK
Assay remarks: Nav1.7 block, PatchXpress 7000 automated whole-cell voltage clamp, estimated IC50 (EIC50)
Type: cell-based
Run parameters: PatchXpress platform; hSCN9A HEK cells held at V1/2 of inactivation; estimated IC50
Simple rule here: IC50 less than 1000 nM is condition met, otherwise condition not met.

Some solved cases for reference:
CC(C)(C)n1ccc(-c2c(F)cccc2Oc2ccc(S(=O)(=O)Nc3ncns3)cc2C#N)n1 = condition not met
N#Cc1cc(S(=O)(=O)Nc2ncc(Cl)s2)ccc1Oc1ccccc1C1CC1 = condition not met
N#Cc1cc(S(=O)(=O)Nc2ncc(Cl)s2)ccc1Oc1ccccc1Oc1ccccc1 = condition not met
CCc1nnc(C)n1-c1ccc(Oc2ccc(S(=O)(=O)Nc3nccs3)cc2F)cc1 = condition not met
O=S(=O)(Nc1nccs1)c1ccc(Oc2ccccc2-c2ccccc2)nc1 = condition not met
CC(C)Oc1ccc(-c2cc(Cl)ccc2Oc2ccc(S(=O)(=O)Nc3nccs3)cc2C#N)cc1 = condition met
Cc1cc(Oc2ccc(S(=O)(=O)Nc3ncc(Cl)s3)cc2C#N)n(C2CCCCC2)n1 = condition not met

We now examine a further molecule.
Request: Threshold test, IC50 < 1000 nM: `N#Cc1cc(S(=O)(=O)Nc2ncns2)ccc1Oc1ccccc1Oc1ccccc1`
Response: condition met

---

Target under test: Nav1.7 (or SCN9A) channel; HEK cells stably transfected with hSCN9A (Homo sapiens)
Construct: expressed in transfected cells
Assay remarks: Nav1.7 block, PatchXpress 7000 automated whole-cell voltage clamp, estimated IC50 (EIC50)
Assay type: cell-based
Run parameters: PatchXpress platform; hSCN9A HEK cells held at V1/2 of inactivation; estimated IC50
Measure: IC50 (nM)
Numbers only, in nM.

Recorded results for 5 compounds are shown here.
Cn1nccc1-c1cc(Cl)ccc1Oc1ccc(S(=O)(=O)Nc2cscn2)cc1F = 810
Cc1cccc(-c2ccc(F)c(F)c2)c1Oc1ccc(S(=O)(=O)Nc2ncns2)cc1C#N = 5930
CC(C)(C)n1nc(C(F)(F)F)cc1-c1ccc(Oc2ccc(S(=O)(=O)Nc3ncc(F)s3)cc2C#N)cc1 = 120
O=S(=O)(Nc1nccs1)c1ccc(Oc2ccccc2-c2ccccc2)c(F)c1 = 120
Cc1cc(S(=O)(=O)Nc2nccs2)ccc1Oc1ccccc1-c1ccccc1 = 1020

Quick one: give me IC50 for each item below, same order please.
1. Cc1n[nH]c(C)c1-c1ccccc1Oc1ccc(S(=O)(=O)Nc2ncns2)cc1C#N
2. CN(C)C(=O)Cn1nccc1-c1cc(F)ccc1Oc1ccc(S(=O)(=O)Nc2nccs2)cc1F
3. O=S(=O)(Nc1ncns1)c1ccc(Oc2ccccc2-c2ccccc2)cc1C(F)(F)F

Response:
1: 3980; 2: 1900; 3: 15900

---

Target under test: Nav1.7 (or SCN9A) channel; HEK cells stably transfected with hSCN9A (Homo sapiens, UniProt Q15858)
Construct: expressed in transfected cells
Assay remarks: Nav1.7 block, PatchXpress 7000 automated whole-cell voltage clamp, estimated IC50 (EIC50)
Type: cell-based
Run parameters: PatchXpress platform; hSCN9A HEK cells held at V1/2 of inactivation; estimated IC50
Measure: IC50 (nM)
Give bare numbers, in nM.

// input: 2 compounds below; output: IC50 for each
1. N#Cc1cc(S(=O)(=O)Nc2ncns2)ccc1Oc1ccc(Cl)cc1-c1ccnn1CCO
2. O=S(=O)(Nc1nccs1)c1ccc(Oc2cccc(OCc3ccccc3)c2)c(F)c1

Response:
[100, 17700]

Each compound below has a recorded value; state its IC50.
1. N#Cc1cc(S(=O)(=O)Nc2nccs2)ccc1Oc1ccc(Cl)cc1-c1ccnn1CC(F)(F)F
2. CC(C)(C)n1ccc(-c2cc(F)ccc2Oc2ccc(S(=O)(=O)Nc3nccs3)c(F)c2)n1
3. COc1ccc(-c2ccccc2Oc2ccc(S(=O)(=O)Nc3ncns3)cc2C#N)c(C)c1
4. N#Cc1cc(S(=O)(=O)Nc2nccs2)ccc1Oc1cc(C2CC2)nn1CC(F)(F)F
5. N#Cc1cc(S(=O)(=O)Nc2ncns2)ccc1Oc1ccc(Cl)cc1Oc1ccccc1

Response:
1: 100; 2: 15400; 3: 630; 4: 36800; 5: 450
